The measurements presented in this section are drawn from paper PMC6001238.

compounds and their reported MIC-fold improvement vs. vancomycin
# System: S. aureus VRSA
# TEST: MIC, broth microdilution, vancomycin-resistant S. aureus (VRSA)
# Format: cell-based, Staphylococcus aureus
# TEST_PARAMETERS: VRSA; ratio of MIC of vancomycin and MIC of analogue

{"COMPOUND": "CCCCOc1ccc(C(=O)NCCCNC(=O)C2NC(=O)C3NC(=O)C(NC(=O)C4NC(=O)C(CC(N)=O)NC(=O)C(NC(=O)C(CC(C)C)NC)C(O)c5ccc(c(Cl)c5)Oc5cc4cc(c5OC4OC(CO)C(O)C(O)C4OC4CC(C)(N)C(O)C(C)O4)Oc4ccc(cc4Cl)C3O)c3ccc(O)c(c3)-c3c(O)cc(O)cc32)cc1 (stereo not drawn)", "MIC-fold improvement vs. vancomycin": 128}
{"COMPOUND": "CN[C@H](CC(C)C)C(=O)N[C@H]1C(=O)N[C@@H](CC(N)=O)C(=O)N[C@H]2C(=O)N[C@H]3C(=O)N[C@H](C(=O)N[C@H](C(=O)NCC(=O)Nc4ccc(Cl)cc4)c4cc(O)cc(O)c4-c4cc3ccc4O)[C@H](O)c3ccc(c(Cl)c3)Oc3cc2cc(c3O[C@@H]2O[C@H](CO)[C@@H](O)[C@H](O)[C@H]2O[C@H]2C[C@](C)(N)[C@H](O)[C@H](C)O2)Oc2ccc(cc2Cl)[C@H]1O", "MIC-fold improvement vs. vancomycin": 32}
{"COMPOUND": "CNC(CC(C)C)C(=O)NC1C(=O)NC(CC(N)=O)C(=O)NC2C(=O)NC3C(=O)NC(C(=O)NC(C(=O)NCCCNC(=O)c4cc5ccccc5s4)c4cc(O)cc(O)c4-c4cc3ccc4O)C(O)c3ccc(c(Cl)c3)Oc3cc2cc(c3OC2OC(CO)C(O)C(O)C2OC2CC(C)(N)C(O)C(C)O2)Oc2ccc(cc2Cl)C1O (stereo not drawn)", "MIC-fold improvement vs. vancomycin": 32}
{"COMPOUND": "CN[C@H](CC(C)C)C(=O)N[C@H]1C(=O)N[C@@H](CC(N)=O)C(=O)N[C@H]2C(=O)N[C@H]3C(=O)N[C@H](C(=O)N[C@H](C(=O)NCCCNC(=O)c4ccc5ccccc5c4)c4cc(O)cc(O)c4-c4cc3ccc4O)[C@H](O)c3ccc(c(Cl)c3)Oc3cc2cc(c3O[C@@H]2O[C@H](CO)[C@@H](O)[C@H](O)[C@H]2O[C@H]2C[C@](C)(N)[C@H](O)[C@H](C)O2)Oc2ccc(cc2Cl)[C@H]1O", "MIC-fold improvement vs. vancomycin": 32}
{"COMPOUND": "C#Cc1ccc(C=Cc2ccc(NC(=O)CNC(=O)C3NC(=O)C4NC(=O)C(NC(=O)C5NC(=O)C(CC(N)=O)NC(=O)C(NC(=O)C(CC(C)C)NC)C(O)c6ccc(c(Cl)c6)Oc6cc5cc(c6OC5OC(CO)C(O)C(O)C5OC5CC(C)(N)C(O)C(C)O5)Oc5ccc(cc5Cl)C4O)c4ccc(O)c(c4)-c4c(O)cc(O)cc43)cc2)cc1 (stereo not drawn)", "MIC-fold improvement vs. vancomycin": 64}
{"COMPOUND": "CCCCCc1ccc(NC(=O)CNC(=O)[C@H]2NC(=O)[C@H]3NC(=O)[C@H](NC(=O)[C@@H]4NC(=O)[C@H](CC(N)=O)NC(=O)[C@H](NC(=O)[C@@H](CC(C)C)NC)[C@H](O)c5ccc(c(Cl)c5)Oc5cc4cc(c5O[C@@H]4O[C@H](CO)[C@@H](O)[C@H](O)[C@H]4O[C@H]4C[C@](C)(N)[C@H](O)[C@H](C)O4)Oc4ccc(cc4Cl)[C@H]3O)c3ccc(O)c(c3)-c3c(O)cc(O)cc32)cc1", "MIC-fold improvement vs. vancomycin": 64}
